Test: Protein binding, mouse
Assay type: in vitro ADME
Field: Protein Binding (% Free) Mouse. Provide a value for each of the compounds that follow.
I only need the number, in % Free, no unit after it.

Give the measured Protein Binding (% Free) Mouse of Cc1cc(-c2cnc3cc(-c4ccc(N5CCNC(C)(C)C5)cc4)ccn23)c2cc(F)cc(F)c2n1 [Compound 26] . 1.03

Name the reported Protein Binding (% Free) Mouse value associated with the compound Cc1cc(-c2cnc3cc(-c4ccc(C5COC(C)CN5)cc4)ccn23)c2ccccc2n1 (stereo not shown) [Compound 14] 1.6

Item Cc1cc(-c2cnc3cc(-c4ccc(C5COCCCN5)cc4)ccn23)c2cc(F)ccc2n1 (stereo not shown) [Compound 10] has what recorded Protein Binding (% Free) Mouse? 1.91

Quick one: Protein Binding (% Free) Mouse of Cc1cc(-c2cnc3cc(-c4ccc(C5CNCCN5)cc4)ccn23)c2ccccc2n1 (stereo not shown) [Compound 12] ? 4.94

What does the data say about its Protein Binding (% Free) Mouse? Entry: Cc1cc(-c2cnc3cc(-c4ccc(C5CNCCN5)cc4)ccn23)c2cc(F)ccc2n1 (stereo not shown) [Compound 17] 8.52

Which Protein Binding (% Free) Mouse reading was recorded for the compound Cc1cc(-c2cnc3cc(-c4ccc(C5COCCN5)cc4)ccn23)c2ccccc2n1 (stereo not shown) [Compound 21] ? 6.24

Could you tell me which Protein Binding (% Free) Mouse is on file for Cc1cc(-c2cnc3cc(-c4ccc(C5COC6(CCNC6)CN5)cc4)ccn23)c2cc(F)cc(F)c2n1 (stereo not shown) [Compound 27] ? 3.9

Quick one: Protein Binding (% Free) Mouse of Cc1cc(-c2cnc3cc(N4CC5(CCNCC5)C4)ccn23)c2cc(F)cc(F)c2n1 [Compound 24] ? 1.08

Could you tell me which Protein Binding (% Free) Mouse is on file for Cc1cc(-c2cnc3cc(-c4ccc(C5COCC(C)N5)cc4)ccn23)c2cc(F)ccc2n1 (stereo not shown) [Compound 20] ? 1.36

Give the measured Protein Binding (% Free) Mouse of c1cc(-c2cnc3cc(-c4ccc(C5CNCCN5)cc4)ccn23)c2cccnc2c1 (stereo not shown) [Compound 33] . 8.4

Given Cc1cc(-c2cnc3cc(-c4ccc(C5COCC(C)N5)cc4)ccn23)c2cc(F)cc(F)c2n1 (stereo not shown) [Compound 23] , state its recorded Protein Binding (% Free) Mouse. 2.85

# lookup: Protein Binding (% Free) Mouse of Cc1cc(-c2cnc3cc(-c4ccc(C5COC(C)CN5)cc4)ccn23)c2cc(F)ccc2n1 (stereo not shown) [Compound 15] 1.01

Protein Binding (% Free) Mouse lookup needed for Cc1cc(-c2cnc3cc(-c4ccc(N5CCC6(CCCCN6)CC5)cc4)ccn23)c2cc(F)cc(F)c2n1 [Compound 25] , thanks. 0.55

====

Kindly supply the reported pIC50 values for the records listed here.
Molecular target: ALK3/BMPR1A (Homo sapiens)
Sequence (P36894 24-532): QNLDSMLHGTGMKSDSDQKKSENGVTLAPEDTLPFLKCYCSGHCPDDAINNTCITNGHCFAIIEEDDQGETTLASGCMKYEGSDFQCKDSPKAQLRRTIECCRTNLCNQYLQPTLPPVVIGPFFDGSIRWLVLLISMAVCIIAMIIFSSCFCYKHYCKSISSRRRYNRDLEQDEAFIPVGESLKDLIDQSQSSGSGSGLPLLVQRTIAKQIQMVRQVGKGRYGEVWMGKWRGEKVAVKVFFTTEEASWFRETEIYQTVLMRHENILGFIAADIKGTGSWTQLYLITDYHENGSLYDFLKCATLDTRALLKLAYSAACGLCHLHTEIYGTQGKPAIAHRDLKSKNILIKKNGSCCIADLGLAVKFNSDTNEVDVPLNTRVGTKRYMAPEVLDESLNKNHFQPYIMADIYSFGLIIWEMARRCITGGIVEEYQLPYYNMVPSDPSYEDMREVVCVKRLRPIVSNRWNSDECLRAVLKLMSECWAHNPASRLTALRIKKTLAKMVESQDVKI
Assay: Kinase assay (33P-ATP filter-binding), ALK3
Assay type: biochemical
Settings: 1 mM; read-out: Kinase Selectivity ALK3/BMPR1A (1 mM)
// returns pIC50 (minus log10 of molar concentration), number only

Form: Entry = O=C1CNC(=O)C(c2ccc(-c3ccn4c(-c5cccc6ncccc56)cnc4c3)cc2)N1 (centres unmarked) | System = ALK3/BMPR1A (Homo sapiens) | pIC50 = ____ 6.53

Find pIC50 (ALK3/BMPR1A (Homo sapiens)) for the entry Cc1cc(-c2cnc3cc(N4CC5(CCNCC5)C4)ccn23)c2cc(F)cc(F)c2n1 8.28

Enter reported pIC50 observed with ALK3/BMPR1A (Homo sapiens) for Cc1cc(-c2cnc3cc(-c4ccc(N5CCC6(CCC6)CC5)cc4)ccn23)c2cc(F)cc(F)c2n1 4.39

Give the reported pIC50 for Cc1cc(-c2cnc3cc(-c4ccc(C5COC6(CCNC6)CN5)cc4)ccn23)c2cc(F)cc(F)c2n1 (centres unmarked) (system: ALK3/BMPR1A (Homo sapiens)). 7.87

API: value(readout= pIC50, system= ALK3/BMPR1A (Homo sapiens), query= c1ncc2scc(-c3cnc4cc(-c5ccc(C6CNCCN6)cc5)ccn34)c2n1 (centres unmarked) ) 5.02

====

Assay: Intrinsic clearance, mouse
Type: in vitro ADME
Details: mouse, CL-Hep, value in parentheses, read-out: Intrinsic Clearance Mouse (CL-Hep)
property name: CLint scaled (mL/min/kg)
Provide only the numeric value, understood in mL/min/kg.

Entry Cc1cc(-c2cnc3cc(-c4ccc(C5COCC(C)N5)cc4)ccn23)c2cc(F)cc(F)c2n1 (stereo not drawn) [Compound 23] : reported CLint scaled = ? 42.9

Using the record for Cc1cc(-c2cnc3cc(-c4ccc(C5COC(C)CN5)cc4)ccn23)c2cc(F)cc(F)c2n1 (stereo not drawn) [Compound 19] , report its CLint scaled. 53.3

# lookup: CLint scaled of Cc1cc(-c2cnc3cc(-c4ccc(N5CCNC(C)(C)C5)cc4)ccn23)c2cc(F)cc(F)c2n1 [Compound 26] 47.1

Fill in the blank: the reported CLint scaled of c1cnc2scc(-c3cnc4cc(-c5ccc(C6CNCCN6)cc5)ccn34)c2c1 (stereo not drawn) [Compound 31] is ____. 33.6

Given the compound Cc1cc(-c2cnc3cc(-c4ccc(C5COCCCN5)cc4)ccn23)c2cc(F)ccc2n1 (stereo not drawn) [Compound 10] , what is its reported CLint scaled? 47.6

Record request: CLint scaled value, item Cc1cc(-c2cnc3cc(-c4ccc(C5COC(C)CN5)cc4)ccn23)c2cc(F)ccc2n1 (stereo not drawn) [Compound 15] 38.1

So what's the measured CLint scaled for this one? Cc1cc(-c2cnc3cc(-c4ccc(C5COCC(C)N5)cc4)ccn23)c2cc(F)ccc2n1 (stereo not drawn) [Compound 20] 50.2

Item Cc1cc(-c2cnc3cc(-c4ccc(C5COC(C)CN5)cc4)ccn23)c2ccccc2n1 (stereo not drawn) [Compound 14] has what recorded CLint scaled? 50.3

====

Assay: Protein binding, human
Format: in vitro ADME
property name: Protein Binding (% Free) Human
Record the value in % Free, omitting the unit from your answer.

Suppose we examine the compound c1cnc2nccc(-c3cnc4cc(-c5ccc(C6CNCCN6)cc5)ccn34)c2c1 (stereo not shown) ; what Protein Binding (% Free) Human value has been reported? 42.8

Fill blank: measured Protein Binding (% Free) Human of the compound c1cnc2scc(-c3cnc4cc(-c5ccc(C6CNCCN6)cc5)ccn34)c2c1 (stereo not shown) is ____. 16.2

Which measured Protein Binding (% Free) Human value corresponds to Cc1cc(-c2cnc3cc(-c4ccc(C5COC(C)CN5)cc4)ccn23)c2cc(F)cc(F)c2n1 (stereo not shown) ? 3.74

Looking for the measured Protein Binding (% Free) Human of Cc1cc(-c2cnc3cc(-c4ccc(C5COC6(CCNC6)CN5)cc4)ccn23)c2cc(F)cc(F)c2n1 (stereo not shown) , can you help? 4.97

====

property name: IC50 (µM)
Give just the number in µM; leave the unit off.

Lab request: please report IC50 under test system KDR (Homo sapiens) for c1cnc2nccc(-c3cnc4cc(-c5ccc(C6CNCCN6)cc5)ccn34)c2c1 (stereo not shown) 9.35

Kindly state the measured IC50 obtained for Cc1cc(-c2cnc3cc(-c4ccc(C5COCCN5)cc4)ccn23)c2cc(F)cc(F)c2n1 (stereo not shown) with KDR (Homo sapiens). 39.3

Quick check: IC50 on KDR (Homo sapiens), item c1cc(-c2cnc3cc(-c4ccc(C5CNCCN5)cc4)ccn23)c2cccnc2c1 (stereo not shown) ? 39.3

Form entry - test system: KDR (Homo sapiens); read-out: IC50; compound: Cc1cc(-c2cnc3cc(-c4ccc(C5CNCCN5)cc4)ccn23)c2cc(F)ccc2n1 (stereo not shown) 31.4

// map Cc1cc(-c2cnc3cc(-c4ccc(C5COCC(C)N5)cc4)ccn23)c2cc(F)cc(F)c2n1 (stereo not shown) to recorded IC50 (system: KDR (Homo sapiens)) 47.4

Lab note: need IC50 with KDR (Homo sapiens) for entry Cc1cc(-c2cnc3cc(-c4ccc(C5COC6(CCNCC6)CN5)cc4)ccn23)c2cc(F)cc(F)c2n1 (stereo not shown) , please look it up. 39.3

# get_value(readout= IC50, system= KDR (Homo sapiens)) for O=C1CNC(=O)C(c2ccc(-c3ccn4c(-c5cccc6ncccc56)cnc4c3)cc2)N1 (stereo not shown) 36.9

====

Please go through the items and note down their IC50.
Answer with a number only, understood to be in µM.

# returns recorded IC50 (system: TGFbR2 (Homo sapiens)) for Cc1cc(-c2cnc3cc(-c4ccc(C5COC6(CCNC6)CN5)cc4)ccn23)c2cc(F)cc(F)c2n1 (stereo not drawn) 1.87

# value lookup — system TGFbR2 (Homo sapiens), readout IC50, item O=C1CNC(=O)C(c2ccc(-c3ccn4c(-c5cccc6ncccc56)cnc4c3)cc2)N1 (stereo not drawn) 0.498

# get_value(readout= IC50, system= TGFbR2 (Homo sapiens)) for NS(=O)(=O)c1ccc(-c2cnc3cc(-c4ccc(C5CNCCN5)cc4)ccn23)c2ccccc12 (stereo not drawn) 2.68

====

Biological target: ALK2/ACVR1 (Homo sapiens, UniProt Q04771)
Sequence (Q04771 21-509): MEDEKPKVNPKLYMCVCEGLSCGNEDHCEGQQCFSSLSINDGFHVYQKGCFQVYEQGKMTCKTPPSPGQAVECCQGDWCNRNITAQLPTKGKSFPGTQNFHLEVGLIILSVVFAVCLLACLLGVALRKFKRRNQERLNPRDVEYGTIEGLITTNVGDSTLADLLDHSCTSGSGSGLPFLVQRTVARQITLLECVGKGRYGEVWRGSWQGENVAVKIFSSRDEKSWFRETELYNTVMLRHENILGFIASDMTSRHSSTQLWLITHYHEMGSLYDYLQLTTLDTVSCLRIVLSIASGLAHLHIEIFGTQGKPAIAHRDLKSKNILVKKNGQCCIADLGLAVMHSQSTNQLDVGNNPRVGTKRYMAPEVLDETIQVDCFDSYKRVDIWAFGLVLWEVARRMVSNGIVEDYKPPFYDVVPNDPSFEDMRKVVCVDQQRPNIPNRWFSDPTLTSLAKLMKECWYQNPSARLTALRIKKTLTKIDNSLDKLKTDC
Assay: Kinase assay (33P-ATP filter-binding), ALK2
Format: biochemical
Conditions: 20 mM; read-out: Kinase Selectivity ALK2/ACVR1 (20 mM)
property name: IC50

Need IC50, item Cc1cc(-c2cnc3cc(-c4ccc(C5COCC(C)N5)cc4)ccn23)c2cc(F)cc(F)c2n1 (centres unmarked) < 5.1 nM

Any idea what its IC50 is? The compound is c1cnc2nccc(-c3cnc4cc(-c5ccc(C6CNCCN6)cc5)ccn34)c2c1 (centres unmarked) 16.5 nM

Could you tell me which IC50 is on file for Cc1cc(-c2cnc3cc(-c4ccc(N5CCC6(CCC6)C5)cc4)ccn23)c2cc(F)cc(F)c2n1 ? > 50000 nM

Give its IC50 value. Item: Cc1cc(-c2cnc3cc(-c4ccc(N5CCCC6(CCCN6)C5)cc4)ccn23)c2cc(F)cc(F)c2n1 (centres unmarked) 147 nM

Given the entry Cc1cc(-c2cnc3cc(-c4ccc(N5CCC6(CCC6)CC5)cc4)ccn23)c2cc(F)cc(F)c2n1 , report its measured IC50. > 50000 nM

What does the data say about its IC50? Entry: Cc1cc(-c2cnc3cc(-c4ccc(C5COC(C)CN5)cc4)ccn23)c2ccccc2n1 (centres unmarked) < 5.1 nM

Entry under review: Cc1cc(-c2cnc3cc(-c4ccc(C5COCC(C)N5)cc4)ccn23)c2cc(F)ccc2n1 (centres unmarked) . Reported IC50? < 5.1 nM

I'd like to know its IC50. The compound in question is Cc1cc(-c2cnc3cc(N4CC5(CCNCC5)C4)ccn23)c2cc(F)cc(F)c2n1 57.8 nM

Origin of values: patent US10745400B2
